Assay: MM1S myeloma cell viability, profiling panel, resazurin fluorescence, basal, 24 h, PK04 Diversity Set (AID 1174);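 also: MM1S multiple myeloma cell line; test concentration not given here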
Conditions: higher = more signal, called active from +8 up or from −8 down
Below: a set of entries, each annotated with reported z-score.

Compound: CCCCC=C[C@@H](NC(=O)c1ccc(C(=O)OC)cc1)c1ccccc1
z-score: 1.13

Compound: C=C[C@@H](COC(C)=O)N(Cc1ccc([N+](=O)[O-])cc1)S(=O)(=O)c1ccc(Br)cc1
z-score: 0.417

Compound: COC(=O)c1ccc(OC)c(/C=C\CC(OC(C)=O)c2ccccc2)c1 (stereo not drawn)
z-score: -0.345

Compound: O=C(CS)NCCCCCCNC(=O)[C@H]1C[C@H]2C(=O)NCC(=O)N2[C@H]1c1ccc(O)cc1
z-score: -0.722

Compound: CC(C)C[C@@H]1NC(=O)[C@H]2C[C@@H](C(=O)NCCCCCCNC(=O)CS)[C@@H](c3cccc(OCCO)c3)N2C1=O
z-score: 0.259

Compound: COc1ccc(C#Cc2ccc3c(c2)[C@]2(C(=O)N3)[C@H](C(=O)NC[C@H](O)c3ccccc3)[C@H]3C(=O)O[C@H](c4ccccc4)[C@H](c4ccccc4)N3[C@@H]2c2ccc(OCCO)cc2)cc1
z-score: -1.16

Compound: C#CCN(C(/C=C/c1ccccc1)CO)C(C(=O)O)c1ccccc1 (stereo not drawn)
z-score: 0.274

Compound: O=C1OCC=C[C@H]2OC34C=CCN(c5ccc(Cl)cc5)C(=O)[C@H]3N(CCCCCCO)C(=O)[C@@H]4[C@@H]12 (stereo partly drawn)
z-score: 0.975

====

Experiment: RPMI8226 myeloma cell viability, profiling panel, resazurin fluorescence, basal, 24 h, PK04 Diversity Set (AID 1180);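 also: RPMI8826 multiple myeloma cell line at 5000 cells per well; test concentration not given here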
Conditions: higher = more signal
Below: a set of entries, each annotated with reported z-score.
Measure Name: z-score

Compound: CCCCCCc1nc(CCCc2cc3c(c(CCCCCC)n2)[Si](C(C)C)(C(C)C)OC3)cc2c1[Si](C(C)C)(C(C)C)OC2
Experimental Result: -0.655
//
Compound: COCCOC(=O)N1C(=O)[C@@]2(c3cc(C#CCC(C(=O)OC)C(=O)OC)ccc31)[C@H](C(=O)N1CCCCCCC1)[C@H]1C(=O)O[C@H](c3ccccc3)[C@H](c3ccccc3)N1[C@@H]2c1ccc(OCCO)cc1
Experimental Result: 0.437
//
Compound: COC(=O)[C@@]1(Cc2ccccc2)[C@H]2c3cc(C(=O)N4CCCC4)n(Cc4ccc(C)o4)c3C[C@H]2CN1C(=O)c1ccccc1
Experimental Result: -2.47
//
Compound: Cc1cc(C)cc(N2C(=O)CS(=O)(=O)C2c2cccc([N+](=O)[O-])c2)c1 (stereo not drawn)
Experimental Result: -0.194
//
Compound: C=C(COC)C(=O)CC[C@@H](OC(=O)c1cccnc1)c1ccc(CO)o1
Experimental Result: 0.807
//
Compound: Cc1ccc(S[C@]2(C(=O)NCC(C)C)CC(=O)N(Cc3ccccc3)[C@@H]2c2ccc(CO)cc2I)cc1
Experimental Result: -1.89
//
Compound: CN(C)CCCNC(=O)[C@@]1(Cc2ccccc2I)c2ccccc2C(=O)N(Cc2ccccc2C(F)(F)F)[C@H]1c1ccc(CO)cc1
Experimental Result: -4.01
//
Compound: O=C1O[C@H](c2ccccc2)[C@H](c2ccccc2)N2[C@H]1[C@@H](C(=O)O)[C@]1(C(=O)Nc3ccc(C#CC4(O)CCCCCC4)cc31)[C@H]2c1ccc(OCCO)cc1
Experimental Result: -0.317
//
Compound: NCCCCCNC(=O)[C@H]1C[C@H]2C(=O)NCC(=O)N2[C@H]1c1cccc(OCCO)c1
Experimental Result: 0.616
//
Compound: COC(=O)C(CC#Cc1ccc2c(c1)[C@]1(C(=O)N2)[C@H](C(=O)NC[C@H](O)c2ccccc2)[C@H]2C(=O)O[C@H](c3ccccc3)[C@H](c3ccccc3)N2[C@@H]1c1ccc(OCCO)cc1)C(=O)OC
Experimental Result: -0.223
//
Compound: COc1ccc([Si](C)(C)[C@@H]2[C@@H](CCn3cc([C@H](O)c4ccccc4)nn3)O[C@]3(C(=O)N(Cc4cccc(N5CCOC5=O)c4)c4ccccc43)[C@H]2C)cc1
Experimental Result: -0.424
//
Compound: COC(=O)[C@@]1(Cc2ccccc2N=[N+]=[N-])COC(c2ccc(OCCCO)cc2)=N1
Experimental Result: -0.496
//
Compound: COc1ccc(C(O)C2C=CC3C(=O)N(c4ccccc4)C(=O)C3N2Nc2ccc([N+](=O)[O-])cc2)cc1OCc1ccccc1 (stereo not drawn)
Experimental Result: -0.839
//
Compound: COc1cccc(C(=O)O[C@H]2CC[C@]3(C)C4=C(CCC3C2(C)C)[C@]2(C)CC[C@H]([C@H](C)CCCC(C)C)[C@@]2(C)CC4)c1 (stereo partly drawn)
Experimental Result: 0.815
//
Compound: CCOC(=O)C1=C[C@@H](C(C)C)N(S(=O)(=O)c2ccc(C)cc2)[C@H]1c1ccc(C(C)C)cc1
Experimental Result: 0.548
//
Compound: COCC(=C=CC[C@H](O)c1ccc(OCCO)cc1)C[C@H](O)c1cc(Cl)cc(Cl)c1O
Experimental Result: 0.708
//
Compound: NC(=O)NCC#Cc1ccc2c(c1)[C@]1(C(=O)N2)[C@H](C(=O)NC[C@H](O)c2ccccc2)[C@H]2C(=O)O[C@H](c3ccccc3)[C@H](c3ccccc3)N2[C@@H]1c1ccc(O)cc1
Experimental Result: -0.518
//
Compound: O=C(O)[C@H]1C[C@H]2C(=O)NCC(=O)N2[C@H]1c1ccc(O)cc1
Experimental Result: 0.839
//
Compound: O=C1OCCC=C[C@H]2OC34C=CCN(Cc5ccccc5)C(=O)[C@H]3N(CCCCCCO)C(=O)[C@@H]4C12 (stereo partly drawn)
Experimental Result: 0.183
//
Compound: CCOC(=O)C1=C[C@@H](CC)N(S(=O)(=O)c2ccc(C)cc2)[C@H]1c1ccccc1
Experimental Result: -1.05
//
Compound: CC(C)c1ccc(NN2C(C(O)c3cccc(O)c3)C=CC3C(=O)N(c4ccccc4)C(=O)C32)cc1 (stereo not drawn)
Experimental Result: -0.111
//
Compound: CC(C)c1ccc(NN2C(C(O)c3ccc(N(C)C)cc3)C=CC3C(=O)N(c4ccccc4)C(=O)C32)cc1 (stereo not drawn)
Experimental Result: 0.203
//
Compound: C=C[C@H](C)[C@@H](O)c1ccc(O)c2ccccc12
Experimental Result: -0.791
//
Compound: COc1cc2c(cc1OC)CN(C(=O)[C@@H]1[C@H]3C(=O)O[C@H](c4ccccc4)[C@H](c4ccccc4)N3[C@H](c3ccccc3OCCO)[C@@]13C(=O)Nc1ccc(C#CCNC(N)=O)cc13)CC2
Experimental Result: 0.088
//
Compound: CCCCC=C[C@@H](NC(=O)c1cccs1)c1ccccc1
Experimental Result: -1.95
//
Compound: CC(C)NC(=O)[C@@H]1c2ccccc2C(=O)N(Cc2ccccc2)[C@H]1c1ccc(CO)cc1
Experimental Result: -0.239
//
Compound: CCOC(=O)C[C@H]1[C@H](OC(=O)c2ccc(C(=O)c3ccccc3)cc2)[C@@H](NC(=O)C2CCCCC2)c2cc(OCCCO)ccc2N1C(=O)c1ccccc1
Experimental Result: -0.125
//
Compound: COc1ccc(C#Cc2ccc3c(c2)[C@]2(C(=O)N3)[C@H](C(=O)NC[C@H](O)c3ccccc3)[C@H]3C(=O)O[C@H](c4ccccc4)[C@H](c4ccccc4)N3[C@@H]2c2ccc(OCCO)cc2)cc1
Experimental Result: -1.47
